Where these numbers come from: PubChem BioAssay AID2060885

I'd appreciate it if you could supply viability, T/C values for the items below.
tested on: NCI-H23 complex spheroids with HUVEC/MSC, viability; assay: Anticancer human tumor NCI-H23 cell line growth inhibition [RAS]; conditions: second compound 0.003 µM; first compound 0.01 µM; stronger effect = lower value;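 also: spheroids exposed to compound for 7 days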;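 as to viability, T/C: 100% = DMSO vehicle control viability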
Give bare numbers, in %.

# Compound, Assayed system, Units of measure, Quantitative result
records = [
    ("C=CC(=O)Nc1cc(Nc2nccc(-c3cn(C)c4ccccc34)n2)c(OC)cc1N(C)CCN(C)C + CCn1c(-c2cc(N3CCN(C)CC3)cnc2C(C)OC)c2c3cc(ccc31)-c1csc(n1)CC(NC(=O)C1CC1C)C(=O)N1CCCC(N1)C(=O)OCC(C)(C)C2", "NCI-H23 complex spheroids with HUVEC/MSC, viability", "%", 32.6),
    ("C=CC(=O)N1CCN(c2nc(OCC3CCCN3C)nc3c(F)c(-c4nc(N)cc(C)c4C(F)(F)F)c(Cl)cc23)C(C)C1 (stereo not drawn) + CCn1c(-c2cccnc2C(C)OC)c2c3cc(ccc31)N1CCOC(CC(NC(=O)C(C(C)C)N(C)C(=O)C3(F)CCN(C(=O)C#CC(C)(C)N(C)C)CC3)C(=O)N3CCCC(N3)C(=O)OCC(C)(C)C2)C1", "NCI-H23 complex spheroids with HUVEC/MSC, viability", "%", 28.5),
    ("C=CC(=O)Nc1cc(Nc2nccc(-c3cn(C)c4ccccc34)n2)c(OC)cc1N(C)CCN(C)C + CCn1c(-c2cccnc2C(C)OC)c2c3cc(ccc31)N1CCOC(CC(NC(=O)C(C(C)C)N(C)C(=O)C3(F)CCN(C(=O)C#CC(C)(C)N(C)C)CC3)C(=O)N3CCCC(N3)C(=O)OCC(C)(C)C2)C1", "NCI-H23 complex spheroids with HUVEC/MSC, viability", "%", 44.7),
    ("CCN1CCN(Cc2ccc(Nc3ncc(F)c(-c4cc(F)c5nc(C)n(C(C)C)c5c4)n3)nc2)CC1 + CCn1c(-c2cccnc2C(C)OC)c2c3cc(ccc31)N1CCOC(CC(NC(=O)C(C(C)C)N(C)C(=O)C3(F)CCN(C(=O)C#CC(C)(C)N(C)C)CC3)C(=O)N3CCCC(N3)C(=O)OCC(C)(C)C2)C1", "NCI-H23 complex spheroids with HUVEC/MSC, viability", "%", 20.8),
    ("C=CC(=O)N1CCN(c2nc(OCC3CCCN3C)nc3c(F)c(-c4nc(N)cc(C)c4C(F)(F)F)c(Cl)cc23)C(C)C1 (stereo not drawn) + CCn1c(-c2cc(N3CCN(C)CC3)cnc2C(C)OC)c2c3cc(ccc31)-c1csc(n1)CC(NC(=O)C1CC1C)C(=O)N1CCCC(N1)C(=O)OCC(C)(C)C2", "NCI-H23 complex spheroids with HUVEC/MSC, viability", "%", 26.3),
    ("CC(C)n1nc(-c2ccc3oc(N)nc3c2)c2c(N)ncnc21 + CCn1c(-c2cccnc2C(C)OC)c2c3cc(ccc31)N1CCOC(CC(NC(=O)C(C(C)C)N(C)C(=O)C3(F)CCN(C(=O)C#CC(C)(C)N(C)C)CC3)C(=O)N3CCCC(N3)C(=O)OCC(C)(C)C2)C1", "NCI-H23 complex spheroids with HUVEC/MSC, viability", "%", 18.1),
    ("O=C(c1ccc(F)c(F)c1Nc1ccc(I)cc1F)N1CC(O)([C@@H]2CCCCN2)C1 + CCn1c(-c2cc(N3CCN(C)CC3)cnc2C(C)OC)c2c3cc(ccc31)-c1csc(n1)CC(NC(=O)C1CC1C)C(=O)N1CCCC(N1)C(=O)OCC(C)(C)C2", "NCI-H23 complex spheroids with HUVEC/MSC, viability", "%", 33.4),
]

Turning now to a further compound:
For O=C(c1ccc(F)c(F)c1Nc1ccc(I)cc1F)N1CC(O)([C@@H]2CCCCN2)C1 + CCn1c(-c2cccnc2C(C)OC)c2c3cc(ccc31)N1CCOC(CC(NC(=O)C(C(C)C)N(C)C(=O)C3(F)CCN(C(=O)C#CC(C)(C)N(C)C)CC3)C(=O)N3CCCC(N3)C(=O)OCC(C)(C)C2)C1 , write its viability, T/C.
54.8

----------
system: NCI-H23 complex spheroids with HUVEC/MSC, viability; assay: Anticancer human tumor NCI-H23 cell line growth inhibition [RAS]; conditions: compound 0.3 µM; active means viability on the fitted dose curve at most 10% of control; inactive means the rest;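 also: spheroids exposed to compound for 7 days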
The reply should name one outcome from active, inactive

# Compound, Category
records = [
    ("CC1(C)CCC(Nc2ncc(C(F)(F)F)c(-c3c[nH]c4c(P(C)(C)=O)c(C#N)ccc34)n2)CN1 (centres undefined)", "inactive"),
    ("CCc1c2c(nc3ccc(O)cc13)-c1cc3c(c(=O)n1C2)COC(=O)[C@]3(O)CC", "active"),
    ("CCn1c(-c2cccnc2C(C)OC)c2c3cc(ccc31)N1CCOC(CC(NC(=O)C(C(C)C)N(C)C(=O)C3(F)CCN(C(=O)C#CC(C)(C)N(C)C)CC3)C(=O)N3CCCC(N3)C(=O)OCC(C)(C)C2)C1 (centres undefined)", "inactive"),
]

Shift focus to the following entry.
Outcome logged for CCn1c(-c2cc(N3CCN(C)CC3)cnc2C(C)OC)c2c3cc(ccc31)-c1csc(n1)CC(NC(=O)C1CC1C)C(=O)N1CCCC(N1)C(=O)OCC(C)(C)C2 (centres undefined) in this assay:
inactive

----------
system: NCI-H23 complex spheroids with HUVEC/MSC, viability; assay: Anticancer human tumor NCI-H23 cell line growth inhibition [RAS]; conditions: curve of first compound; second compound 0.0316 µM;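 also: spheroids exposed to compound for 7 days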
Kindly supply the reported IC50 values for the records listed here.

Some compounds with recorded IC50:
# Compound, IC50
records = [
    ("Nc1ccn(C2OC(CO)C(O)C2(F)F)c(=O)n1 (stereo not given) + C=CC(=O)N1CCN(c2nc(OCC3CCCN3C)nc3c(F)c(-c4nc(N)cc(C)c4C(F)(F)F)c(Cl)cc23)C(C)C1", "< 0.00316 µM"),
    ("CC(=O)OC12COC1CC(O)C1(C)C(=O)C(O)C3=C(C)C(OC(=O)C(O)C(NC(=O)OC(C)(C)C)c4ccccc4)CC(O)(C(OC(=O)c4ccccc4)C21)C3(C)C (stereo not given) + C=CC(=O)N1CCN(c2nc(OCC3CCCN3C)nc3c(F)c(-c4nc(N)cc(C)c4C(F)(F)F)c(Cl)cc23)C(C)C1", "< 0.0316 µM"),
    ("C[C@@H](NC(=O)c1ncnc(N)c1Cl)c1ncc(C(=O)Nc2cc(C(F)(F)F)c(Cl)cn2)s1 + C=CC(=O)N1CCN(c2nc(OCC3CCCN3C)nc3c(F)c(-c4nc(N)cc(C)c4C(F)(F)F)c(Cl)cc23)C(C)C1", "< 0.0316 µM"),
    ("CC(C)NCC(C(=O)N1CCN(c2ncnc3c2C(C)CC3O)CC1)c1ccc(Cl)cc1 (stereo not given) + C#Cc1c(F)ccc2cc(O)cc(-c3ncc4c(N5CC6CCC(C5)N6)nc(OCC56CCCN5CC(F)C6)nc4c3F)c12", "> 10 µM"),
]

Now for a further compound.
For the compound CC(C)n1nc(-c2ccc3oc(N)nc3c2)c2c(N)ncnc21 + C#Cc1c(F)ccc2cc(O)cc(-c3ncc4c(N5CC6CCC(C5)N6)nc(OCC56CCCN5CC(F)C6)nc4c3F)c12 , report IC50.
0.0539 µM

----------
system: NCI-H23 complex spheroids with HUVEC/MSC, viability; experiment: Anticancer human tumor NCI-H23 cell line growth inhibition [RAS]; details: second compound 0.1 µM; first compound 0.316 µM; stronger effect = lower value;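 also: spheroids exposed to compound for 7 days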;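 as to viability, T/C: 100% = DMSO vehicle control viability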
Hi there, I'd appreciate the recorded viability, T/C for every entry that follows.

Examples with answers:
# Compound, viability, T/C
measured = [
    ("CC(C)NCC(C(=O)N1CCN(c2ncnc3c2C(C)CC3O)CC1)c1ccc(Cl)cc1 (stereo unspecified) + C=CC(=O)N1CCN(c2nc(OCC3CCCN3C)nc3c(F)c(-c4nc(N)cc(C)c4C(F)(F)F)c(Cl)cc23)C(C)C1", "29.9%"),
    ("Cc1nc(N2CCC3(CC2)COC(C)C3N)c(CO)nc1Sc1ccnc(N)c1Cl (stereo unspecified) + C=CC(=O)N1CCN(c2nc(OCC3CCCN3C)nc3c(F)c(-c4nc(N)cc(C)c4C(F)(F)F)c(Cl)cc23)C(C)C1", "25.8%"),
]

Could you tell me viability, T/C for each of these compounds? They are listed below.
1. CC(=O)OC12COC1CC(O)C1(C)C(=O)C(O)C3=C(C)C(OC(=O)C(O)C(NC(=O)OC(C)(C)C)c4ccccc4)CC(O)(C(OC(=O)c4ccccc4)C21)C3(C)C (stereo unspecified) + C#Cc1c(F)ccc2cc(O)cc(-c3ncc4c(N5CC6CCC(C5)N6)nc(OCC56CCCN5CC(F)C6)nc4c3F)c12
2. O=C(c1ccc(F)c(F)c1Nc1ccc(I)cc1F)N1CC(O)([C@@H]2CCCCN2)C1 + C#Cc1c(F)ccc2cc(O)cc(-c3ncc4c(N5CC6CCC(C5)N6)nc(OCC56CCCN5CC(F)C6)nc4c3F)c12
3. CCC(CC)c1cc(NC2CCC(N)C2)n2nccc2n1 (stereo unspecified) + C#Cc1c(F)ccc2cc(O)cc(-c3ncc4c(N5CC6CCC(C5)N6)nc(OCC56CCCN5CC(F)C6)nc4c3F)c12

34.6%
30.9%
104%

Supply measured viability, T/C of CC1(O)CCCC1n1c(=O)c(C(F)F)cc2cnc(NC3CCN(S(C)(=O)=O)CC3)nc21 (stereo unspecified) + C#Cc1c(F)ccc2cc(O)cc(-c3ncc4c(N5CC6CCC(C5)N6)nc(OCC56CCCN5CC(F)C6)nc4c3F)c12 in your reply.
58.7%
